# System: PC-3
# ASSAY_OVERVIEW: NCI tumour cell line growth inhibition, 48 h
Active and inactive are the calls of the source. No stated cut-off is given here; in the data, active = GI50 up to about 1.1 µM and inactive = higher.
The reply should be one of these categories: active, inactive

compound="NC(=O)NC(=O)CCC(NS(=O)(=O)c1ccccc1)C(=O)NC(N)=O (stereo unspecified)" class_name=inactive
compound="CCOC(=O)C(Cl)(NC(=O)NC(Cl)(C(=O)OCC)C(F)(F)F)C(F)(F)F (stereo unspecified)" class_name=inactive
compound=CCOC(=O)CCCNC(=O)CCCCC(=O)N(C)C class_name=inactive
compound=N=C(N)NCCNC(=N)N class_name=inactive
compound=CCOC(=O)NC(Nc1ccc(C)cc1)(C(F)(F)F)C(F)(F)F class_name=inactive
compound=CCN1CN(c2ccccc2)C2(CCN(CCCSc3ccc(F)cc3)CC2)C1=O class_name=inactive

Task: What classification did CCCc1cc2c(cc1O)CC[C@@H]1[C@@H]2CC[C@]2(C)[C@@H](O)CC[C@@H]12 end up with in this test?
Result: inactive
